# test.system: δ-opioid receptor (DOR) (Homo sapiens)
# Sequence (P41143 whole entry): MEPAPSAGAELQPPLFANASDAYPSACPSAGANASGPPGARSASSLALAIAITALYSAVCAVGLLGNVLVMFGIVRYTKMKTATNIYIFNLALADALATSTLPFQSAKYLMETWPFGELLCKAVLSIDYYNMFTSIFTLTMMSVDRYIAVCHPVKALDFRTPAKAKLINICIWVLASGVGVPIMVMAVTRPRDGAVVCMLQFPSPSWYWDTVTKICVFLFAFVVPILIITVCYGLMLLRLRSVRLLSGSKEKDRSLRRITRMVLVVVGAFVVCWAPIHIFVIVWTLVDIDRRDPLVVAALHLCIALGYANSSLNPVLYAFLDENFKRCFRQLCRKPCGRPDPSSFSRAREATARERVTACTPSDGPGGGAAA
# assay.name: DOR agonist cAMP assay (HitHunter cAMP, forskolin-stimulated)
# Description: The HitHunter® cAMP chemiluminescent assay kit (DiscoveRx, Cat# 90-0075 SM25) was used to detect cAMP production in cAMP Hunter™ Gαi cell lines over expressing either Human-ORPM1 (Discoverx, Catalog# 95-0107C2) or Human-ORPD1 (DiscoveRx, Catalog# 95-0108C2). […] Cellular cAMP concentrations were measured using the HitHunter cAMP Assay kit following the manufacturer's protocol. […] The amount of signal is directly proportional to the amount of cAMP in cells and can be quantified using cAMP standards. […]
Numbered stars: 1 amine (or outer) side, 2 acyl side, 3 side chain; on linkers, the order of the positions; unused ones are H or OH. Bridge positions count the residues as written; N and C are the ends. Square brackets hold non-standard residues; d marks the D form. Peptide text beside a SMILES is read from it. I, II: the chains in the order shown. Phe(3,4-(OMe)2) = COc1ccc(C[C@H](N)C(=O)O)cc1OC; Phe(4-F) = N[C@@H](Cc1ccc(F)cc1)C(=O)O; Diglycolyl = O=C(COCC(=O)[*:2])[*:1]; Dmt = Cc1cc(O)cc(C)c1C[C@H](N)C(=O)O; hPhe = N[C@@H](CCc1ccccc1)C(=O)O; Tic = O=C(O)[C@@H]1Cc2ccccc2CN1; β3hF = N[C@H](CC(=O)O)Cc1ccccc1; Sar = CNCC(=O)O
The reader will find reported EC50 values listed item by item below.

Some molecules with known EC50 results, for comparison:
molecule	assay.metric	measured
Cc1cc(O)cc(C)c1C[C@H](N)C(=O)N[C@@H](C)C(=O)NCC(=O)N[C@H](CC(=O)N(C)CC(=O)O)Cc1ccccc1	EC50	10 to 50 nM
CC[C@H](C)[C@H](NC(=O)[C@@H](C)NC(=O)[C@@H](N)Cc1c(C)cc(O)cc1C)C(=O)N[C@H](CC(=O)N(C)CC(N)=O)Cc1ccccc1 [compound 68] (H-[Dmt][dA]I[β3hF][Sar]-NH2)	EC50	10 to 50 nM
C[C@@H](NC(=O)[C@@H](N)Cc1ccc(O)c(Cl)c1)C(=O)NCC(=O)N[C@H](CC(=O)N(C)CC(N)=O)Cc1ccccc1	EC50	10 to 50 nM
Cc1cc(C(N)=O)cc(C)c1C[C@H](N)C(=O)N[C@H](C)C(=O)NCC(=O)N1Cc2ccccc2C[C@H]1C(=O)N(C)CC(N)=O	EC50	10 to 50 nM
C[C@@H](NC(=O)[C@@H](N)Cc1ccc(C(=O)O)cc1)C(=O)NCC(=O)N[C@H](CC(=O)N(C)CC(N)=O)Cc1ccccc1	EC50	50 to 200 nM

Return EC50 (reported value) for this molecule: `Cc1cc(O)cc(C)c1C[C@H](N)C(=O)N[C@H](C)C(=O)NCC(=O)N[C@@H](Cc1ccc(F)cc1)C(=O)NCC(N)=O`
< 1 nM

Return EC50 (reported value) for this molecule: `CCCC[C@@H](C(=O)O)N(C)C(=O)C[C@H](Cc1ccc(I)cc1)NC(=O)CNC(=O)[C@@H](C)NC(=O)[C@@H](N)Cc1c(C)cc(C(N)=O)cc1C`
< 1 nM

Return EC50 (reported value) for this molecule: `Cc1cc(O)cc(C)c1C[C@H](N)C(=O)N[C@H](C)C(=O)NCC(=O)N[C@H](CC(=O)N(C)[C@@H](Cc1ccc(O)cc1)C(=O)O)Cc1ccccc1`
< 1 nM

Return EC50 (reported value) for this molecule: `CCCC[C@@H](C(=O)O)N(C)C(=O)C[C@H](Cc1ccc(O)cc1)NC(=O)CNC(=O)[C@@H](C)NC(=O)[C@@H](N)Cc1c(C)cc(O)cc1C`
< 1 nM

Return EC50 (reported value) for this molecule: `Cc1cc(O)cc(C)c1C[C@H](N)C(=O)N[C@H](CCCNC(=N)N)C(=O)N[C@@H](Cc1ccccc1)C(=O)N(C)[C@@H](CCCCN)C(N)=O`
> 200 nM

Return EC50 (reported value) for this molecule: `CCCC[C@@H](C(=O)O)N(C)C(=O)C[C@H](Cc1cccc(C)c1)NC(=O)CNC(=O)[C@@H](C)NC(=O)[C@@H](N)Cc1c(C)cc(C(N)=O)cc1C`
< 1 nM

Return EC50 (reported value) for this molecule: Cc1cc(O)cc(C)c1C[C@H](N)C(=O)N[C@H](C)C(=O)NCC(=O)N[C@H](CC(=O)N(C)CC(=O)N[C@H](CCCCNC(=O)COCC(=O)NCCCC[C@@H](NC(=O)CN(C)C(=O)C[C@H](Cc1ccccc1)NC(=O)CNC(=O)[C@@H](C)NC(=O)[C@@H](N)Cc1c(C)cc(O)cc1C)C(N)=O)C(N)=O)Cc1ccccc1 [compound 271] (I: H-[Dmt][dA]G[β3hF][Sar][dK]-NH2 / II: H-[Dmt][dA]G[β3hF][Sar][dK]-NH2; linker I:6-II:6 via Diglycolyl)
1 to 10 nM

Return EC50 (reported value) for this molecule: `Cc1cc(O)cc(C)c1C[C@H](N)C(=O)N[C@H](C)C(=O)NCC(=O)N[C@H](CC(=O)N(C)[C@@H](C)C(=O)O)Cc1ccccc1`
< 1 nM

Return EC50 (reported value) for this molecule: `Cc1cc(O)cc(C)c1C[C@H](N)C(=O)N[C@H](C)C(=O)NCC(=O)N[C@H](CC(=O)N(C)CC(N)=O)Cc1ccccc1`
< 1 nM

Return EC50 (reported value) for this molecule: Cc1cc(O)cc(C)c1C[C@H](N)C(=O)N[C@H](CCCNC(=N)N)C(=O)N[C@@H](Cc1ccc(F)cc1)C(=O)N(C)CC(N)=O [compound 19] (H-[Dmt][dR][Phe(4-F)][Sar]-NH2)
1 to 10 nM

Return EC50 (reported value) for this molecule: `Cc1cc(O)cc(C)c1C[C@H](N)C(=O)N[C@H](C)C(=O)NCC(=O)N[C@H](CC(=O)N(C)[C@@H](CC1CCCCC1)C(=O)O)Cc1ccccc1`
1 to 10 nM

Return EC50 (reported value) for this molecule: COc1ccc(C[C@H](NC(=O)[C@@H](CCCNC(=N)N)NC(=O)[C@@H](N)Cc2c(C)cc(O)cc2C)C(=O)N(C)CC(N)=O)cc1OC [compound 25] (H-[Dmt][dR][Phe(3,4-(OMe)2)][Sar]-NH2)
> 200 nM

Return EC50 (reported value) for this molecule: Cc1cc(O)cc(C)c1C[C@H](N)C(=O)N[C@H](CCCNC(=N)N)C(=O)N[C@@H](Cc1ccccc1)C(=O)N[C@@H](CCc1ccccc1)C(N)=O [compound 18] (H-[Dmt][dR]F[hPhe]-NH2)
1 to 10 nM

Return EC50 (reported value) for this molecule: Cc1cc(O)cc(C)c1C[C@H](N)C(=O)N[C@H](CCCNC(=N)N)C(=O)N1Cc2ccccc2C[C@H]1C(=O)N(C)CC(N)=O [compound 21] (H-[Dmt][dR][Tic][Sar]-NH2)
> 200 nM

Return EC50 (reported value) for this molecule: `CCCC[C@@H](C(=O)O)N(C)C(=O)C[C@H](Cc1ccc(C)cc1)NC(=O)CNC(=O)[C@@H](C)NC(=O)[C@@H](N)Cc1c(C)cc(C(N)=O)cc1C`
< 1 nM
